system: Staphylococcus aureus; assay: Antimicrobial activity against methicillin-resistant Staphylococcus aureus MTCC 96 after 24 hrs by two fold dilution method; assay type: functional; conditions: MTCC 96, 24 h
Measured MIC, listed per entry for reference.
Respond numerically; units are µg/mL and should not be typed.

// known answers, use as guide
CC[C@H](N[C@H](C)[C@@H](O)c1ccccc1)c1ccccc1.Cl :: 31.2
COc1ccc([C@H](C)N[C@H](C)[C@@H](O)c2ccccc2)cc1.Cl :: 62.5
CC(C)C[C@@H](C)N[C@@H](C)[C@H](O)c1ccccc1.Cl :: 62.5

# input molecule: CN[C@@H]1[C@H](O[C@H]2[C@H](O[C@H]3[C@H](O)[C@@H](O)[C@H](N=C(N)N)[C@@H](O)[C@@H]3N=C(N)N)O[C@@H](C)[C@]2(O)C=O)O[C@@H](CO)[C@H](O)[C@H]1O [STREPTOMYCIN] ; wanted: its MIC
6.25

For the molecule `COc1ccc([C@@H](C)N[C@@H](C)[C@H](O)c2ccccc2)cc1.Cl` , what MIC is on record?
125

GET /values?readout=MIC&item= `C[C@H](N[C@H](C)[C@@H](O)c1ccccc1)c1ccccc1.Cl`
125

---

tested on: Micrococcus luteus; experiment: Antimicrobial activity against Micrococcus luteus MTCC 106 at 1 mg/disc after 24 hrs by disc diffusion assay; format: functional
Catalogue of inhibition zone (IZ) readings, one per entry.

Illustrative cases are given below, each with its answer.
CC[C@H](C)N[C@H](C)[C@@H](O)c1ccccc1.Cl (mixture of isomers) :: 10 mm
COc1ccc([C@@H](C)N[C@@H](C)[C@H](O)c2ccccc2)cc1.Cl :: 15 mm
CN[C@@H]1[C@H](O[C@H]2[C@H](O[C@H]3[C@H](O)[C@@H](O)[C@H](N=C(N)N)[C@@H](O)[C@@H]3N=C(N)N)O[C@@H](C)[C@]2(O)C=O)O[C@@H](CO)[C@H](O)[C@H]1O :: 26 mm
CC(C)C[C@@H](C)N[C@@H](C)[C@H](O)c1ccccc1.Cl :: 16 mm
CC[C@H](N[C@H](C)[C@@H](O)c1ccccc1)c1ccccc1.Cl :: 23 mm

Item `CC(C)C[C@H](C)N[C@H](C)[C@@H](O)c1ccccc1.Cl` has what recorded inhibition zone (IZ)?
13 mm

Recorded inhibition zone (IZ) of `COc1ccc([C@H](C)N[C@H](C)[C@@H](O)c2ccccc2)cc1.Cl` , please.
19 mm

---

tested on: Klebsiella aerogenes; assay: Antimicrobial activity against Enterobacter aerogenes MTCC 111 after 24 hrs by two fold dilution method; format: functional; details: MTCC 111, 24 h
List of MIC values.
Give the quantity in µg/mL, number only.

CN[C@@H]1[C@H](O[C@H]2[C@H](O[C@H]3[C@H](O)[C@@H](O)[C@H](N=C(N)N)[C@@H](O)[C@@H]3N=C(N)N)O[C@@H](C)[C@]2(O)C=O)O[C@@H](CO)[C@H](O)[C@H]1O [STREPTOMYCIN] :: 25
COc1ccc([C@@H](C)N[C@@H](C)[C@H](O)c2ccccc2)cc1.Cl :: 125
CC(C)C[C@@H](C)N[C@@H](C)[C@H](O)c1ccccc1.Cl :: 125
CC[C@@H](N[C@@H](C)[C@H](O)c1ccccc1)c1ccccc1.Cl :: 31.2

Please find the next molecule below.
Name the reported MIC value associated with the molecule `CC[C@H](N[C@H](C)[C@@H](O)c1ccccc1)c1ccccc1.Cl`
31.2

---

List of MBC values.
tested on: Salmonella typhimurium; assay: Bactericidal activity against Salmonella typhimurium MTCC 1251 after 24 hrs by two fold dilution method; assay type: functional, Salmonella enterica subsp. enterica serovar Typhimurium; conditions: Salmonella enterica, MTCC 1251, 24 h
Output spec: scalar in µg/mL, unitless text.

Reference set (3 entries):
CC[C@H](N[C@H](C)[C@@H](O)c1ccccc1)c1ccccc1.Cl :: 62.5
CC[C@@H](N[C@@H](C)[C@H](O)c1ccccc1)c1ccccc1.Cl :: 31.2
C[C@H](N[C@H](C)[C@@H](O)c1ccccc1)c1ccccc1.Cl :: 250

Which MBC reading was recorded for the molecule `CC(C)C[C@H](C)N[C@H](C)[C@@H](O)c1ccccc1.Cl` ?
500

Which value of MBC has been reported for `COc1ccc([C@H](C)N[C@H](C)[C@@H](O)c2ccccc2)cc1.Cl` in the records?
250

Can you share its MBC? I mean this molecule: `COc1ccc([C@@H](C)N[C@@H](C)[C@H](O)c2ccccc2)cc1.Cl`
500

# lookup: MBC of `C[C@H](N[C@H](C)c1ccccc1)[C@H](O)c1ccccc1.Cl`
500

For the molecule shown here, `CC(C)C[C@@H](C)N[C@@H](C)[C@H](O)c1ccccc1.Cl` , give the reported MBC.
250

---

test system: Shigella flexneri; assay: Antimicrobial activity against Shigella flexneri MTCC 1457 at 1 mg/disc after 24 hrs by disc diffusion assay; type: functional
Calls of active or inactive are those of the source. The rule behind the calls is not given here.
READOUT: inhibition zone (IZ)

Reference set (7 entries):
CC(C)C[C@@H](C)N[C@@H](C)[C@H](O)c1ccccc1.Cl :: 15 mm
CC[C@@H](C)N[C@@H](C)[C@H](O)c1ccccc1.Cl (mixture of isomers) :: inactive
CN[C@@H]1[C@H](O[C@H]2[C@H](O[C@H]3[C@H](O)[C@@H](O)[C@H](N=C(N)N)[C@@H](O)[C@@H]3N=C(N)N)O[C@@H](C)[C@]2(O)C=O)O[C@@H](CO)[C@H](O)[C@H]1O :: 30 mm
CC[C@@H](N[C@@H](C)[C@H](O)c1ccccc1)c1ccccc1.Cl :: 21 mm
CC[C@H](C)N[C@H](C)[C@@H](O)c1ccccc1.Cl (mixture of isomers) :: inactive
CC(C)C[C@H](C)N[C@H](C)[C@@H](O)c1ccccc1.Cl :: 10 mm
COc1ccc([C@@H](C)N[C@@H](C)[C@H](O)c2ccccc2)cc1.Cl :: 18 mm

Query: inhibition zone (IZ); subject: `C[C@H](N[C@H](C)c1ccccc1)[C@H](O)c1ccccc1.Cl`
16 mm

---

inhibition zone (IZ) overview
system: Micrococcus luteus; test: Antimicrobial activity against Micrococcus luteus MTCC 106 at 1 mg/disc after 24 hrs by disc diffusion assay; type: functional
Please append the unit to your numeric answer.

Recorded inhibition zone (IZ), per entry:
C[C@H](N[C@H](C)c1ccccc1)[C@H](O)c1ccccc1.Cl :: 14 mm
CC[C@@H](N[C@@H](C)[C@H](O)c1ccccc1)c1ccccc1.Cl :: 21 mm

Query inhibition zone (IZ) on Micrococcus luteus for `C[C@H](N[C@H](C)[C@@H](O)c1ccccc1)c1ccccc1.Cl`
15 mm

---

system: Pseudomonas aeruginosa; experiment: Bactericidal activity against Pseudomonas aeruginosa MTCC 741 after 24 hrs by two fold dilution method; format: functional; settings: MTCC 741, 24 h
READOUT: MBC (µg/mL)
Please state the figure in µg/mL; there is no need to write the unit.

// worked examples, MBC included
CC[C@@H](N[C@@H](C)[C@H](O)c1ccccc1)c1ccccc1.Cl :: 62.5
COc1ccc([C@H](C)N[C@H](C)[C@@H](O)c2ccccc2)cc1.Cl :: 250

Field: next compound
# get_value(readout='MBC', item= `CC(C)C[C@H](C)N[C@H](C)[C@@H](O)c1ccccc1.Cl` )
500

---

tested on: Shigella flexneri; assay: Antimicrobial activity against Shigella flexneri MTCC 1457 at 1 mg/disc after 24 hrs by disc diffusion assay; assay type: functional
Here, each record is paired with measured inhibition zone (IZ) data.
Numeric answer only, unit mm assumed.

Would you mind telling me what inhibition zone (IZ) value was observed for `COc1ccc([C@H](C)N[C@H](C)[C@@H](O)c2ccccc2)cc1.Cl` ?
17

Item under review: `C[C@H](N[C@H](C)[C@@H](O)c1ccccc1)c1ccccc1.Cl` . Reported inhibition zone (IZ)?
12

// returns reported inhibition zone (IZ) for input `CC[C@H](N[C@H](C)[C@@H](O)c1ccccc1)c1ccccc1.Cl`
20

---

system: Pseudomonas aeruginosa; experiment: Antimicrobial activity against Pseudomonas aeruginosa MTCC 741 after 24 hrs by two fold dilution method; format: functional; details: MTCC 741, 24 h
Here the recorded MIC is given for each entry.
Provide only the numeric value, understood in µg/mL.

Check out these entries, answers already filled in.
C[C@H](N[C@H](C)c1ccccc1)[C@H](O)c1ccccc1.Cl :: 62.5
C[C@H](N[C@H](C)[C@@H](O)c1ccccc1)c1ccccc1.Cl :: 250
CC[C@@H](N[C@@H](C)[C@H](O)c1ccccc1)c1ccccc1.Cl :: 62.5
CC(C)C[C@@H](C)N[C@@H](C)[C@H](O)c1ccccc1.Cl :: 62.5
CC(C)C[C@H](C)N[C@H](C)[C@@H](O)c1ccccc1.Cl :: 250

State its MIC on Pseudomonas aeruginosa: `CN[C@@H]1[C@H](O[C@H]2[C@H](O[C@H]3[C@H](O)[C@@H](O)[C@H](N=C(N)N)[C@@H](O)[C@@H]3N=C(N)N)O[C@@H](C)[C@]2(O)C=O)O[C@@H](CO)[C@H](O)[C@H]1O`
25

Look up MIC with Pseudomonas aeruginosa for this compound: `CC[C@H](N[C@H](C)[C@@H](O)c1ccccc1)c1ccccc1.Cl`
62.5

Identify the measured MIC of `COc1ccc([C@@H](C)N[C@@H](C)[C@H](O)c2ccccc2)cc1.Cl` for Pseudomonas aeruginosa.
125

Observed MIC on Pseudomonas aeruginosa for `COc1ccc([C@H](C)N[C@H](C)[C@@H](O)c2ccccc2)cc1.Cl` , please.
125
